# TARGET: hRpn13 pleckstrin-like receptor for ubiquitin (Pru) domain (human, UniProt Q16186 1-150)
# Sequence (Q16186 1-150): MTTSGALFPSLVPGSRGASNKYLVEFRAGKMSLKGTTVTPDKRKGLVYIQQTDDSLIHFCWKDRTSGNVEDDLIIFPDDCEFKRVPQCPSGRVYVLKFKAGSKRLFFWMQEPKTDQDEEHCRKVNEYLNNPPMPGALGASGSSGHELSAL
# TEST DESCRIPTION: ITC
PROPERTY: Kd (µM)
State the answer as a number, implicitly in µM.

According to the records, this binder hPLIC2 ubiquitin-like (UBL) domain (domain or fragment, human, UniProt Q9UHD9 33-107, looked up) IKVTVKTPKEKEEFAVPENSSVQQFKEAISKRFKSQTDQLVLIFAGKILKDQDTLIQHGIHDGLTVHLVIKSQNR displays Kd of 9.3
